# assay.conditions: in benzene, 318.15 K
measured.parameter: solubility (mole fraction)

>  <mol.smiles>
Nc1ccc(Cc2ccc(N)cc2)cc1

>  <reading>
0.0865

$$$$

----------
# assay.conditions: in toluene, 298.15 K

>  <mol.smiles>
Nc1ccc(Cc2ccc(N)cc2)cc1

>  <solubility (mole fraction)>
0.0195

$$$$

----------
# assay.conditions: in isopropanol, 293.15 K

>  <mol.smiles>
Nc1ccc(Cc2ccc(N)cc2)cc1

>  <solubility (mole fraction)>
0.011

$$$$

----------
# assay.conditions: in benzene, 313.15 K

>  <mol.smiles>
Nc1ccc(Cc2ccc(N)cc2)cc1

>  <solubility (mole fraction)>
0.066

$$$$
